These entries and their values trace back to the supplement of paper PMC6555819.

So I've got a bunch of sequences here, and I need their PBM binding z-score values.
# Tested on: PPARg:RXRa 90nM:30nM, anti-RXR (NR concentration 90 nM, RXRa partner concentration 30 nM)
# EXPERIMENT: PBM binding z-score (relative to random genomic background probes); higher = stronger binding; sequences stand for … in GC…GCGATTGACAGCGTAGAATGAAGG

Q) Observed PBM binding z-score on PPARg:RXRa 90nM:30nM, anti-RXR (NR concentration 90 nM, RXRa partner concentration 30 nM) for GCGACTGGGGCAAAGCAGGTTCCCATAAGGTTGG , please.
A) 0.203

Q) Request: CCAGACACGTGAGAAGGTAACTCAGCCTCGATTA
A) -0.704

Q) // same read-out, input: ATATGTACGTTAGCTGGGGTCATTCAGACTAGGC
A) 1.33

Q) What do you have for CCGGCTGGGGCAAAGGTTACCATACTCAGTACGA ?
A) 7.57

Q) Follow-up entry: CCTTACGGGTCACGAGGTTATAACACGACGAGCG
A) 5.53

Q) Entry to check: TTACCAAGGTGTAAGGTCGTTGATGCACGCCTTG
A) 3.46

Q) And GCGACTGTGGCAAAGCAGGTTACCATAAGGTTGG ?
A) -0.508

Q) Quick one: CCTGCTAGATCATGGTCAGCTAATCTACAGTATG
A) -0.269

Q) Next entry: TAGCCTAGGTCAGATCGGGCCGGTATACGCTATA
A) 0.0642

Q) Continue with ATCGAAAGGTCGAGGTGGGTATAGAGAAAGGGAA
A) 1.97

Q) # iterate: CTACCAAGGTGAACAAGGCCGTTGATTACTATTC
A) 0.152

Q) Now try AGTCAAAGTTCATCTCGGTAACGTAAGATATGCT .
A) 5.22

====

# System: FXR:RXRa (NR concentration 270 nM, RXRa partner concentration 90 nM)
# EXPERIMENT: PBM binding z-score (relative to random genomic background probes); higher = stronger binding; sequences stand for … in GC…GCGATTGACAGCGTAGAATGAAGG
Could you label it Fulfilled if measured PBM binding z-score is 1 or higher, and Not fulfilled otherwise?

Q) Tell me whether PBM binding z-score is at least 1 here: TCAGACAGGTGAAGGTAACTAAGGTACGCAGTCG
A) Fulfilled

Q) Record: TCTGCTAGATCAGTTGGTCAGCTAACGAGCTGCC
A) Not fulfilled

Q) Further, for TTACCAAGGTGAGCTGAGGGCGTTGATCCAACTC ?
A) Not fulfilled

Q) Another sequence to look at: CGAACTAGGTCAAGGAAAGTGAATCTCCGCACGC
A) Fulfilled

Q) # iterate: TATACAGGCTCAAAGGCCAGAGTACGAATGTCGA
A) Not fulfilled

Q) Cool, now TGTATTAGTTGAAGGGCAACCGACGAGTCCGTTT
A) Not fulfilled

Q) Entry to check: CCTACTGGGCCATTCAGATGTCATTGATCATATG
A) Not fulfilled

Q) Same again, this time with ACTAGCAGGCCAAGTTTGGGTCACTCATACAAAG
A) Not fulfilled

Q) What about this sequence? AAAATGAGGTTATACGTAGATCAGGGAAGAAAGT
A) Fulfilled

Q) Then what about the sequence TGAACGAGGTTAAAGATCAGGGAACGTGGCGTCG ?
A) Fulfilled

Q) Next sequence up: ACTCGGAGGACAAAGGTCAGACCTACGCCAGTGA
A) Fulfilled

Q) Can you handle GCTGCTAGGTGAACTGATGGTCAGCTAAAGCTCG next?
A) Not fulfilled

Q) Item: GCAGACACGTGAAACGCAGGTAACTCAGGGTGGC
A) Not fulfilled

Q) Would you kindly repeat that for ATCTCTCGGTAAAGTTCAGTGAAAGATCGATAGA ?
A) Fulfilled

Q) Entry to check: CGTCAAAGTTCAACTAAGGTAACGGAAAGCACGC
A) Fulfilled

Q) Follow-up entry: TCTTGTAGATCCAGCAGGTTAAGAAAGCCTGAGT
A) Not fulfilled

Q) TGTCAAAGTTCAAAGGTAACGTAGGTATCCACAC , same question.
A) Fulfilled

Q) Can you handle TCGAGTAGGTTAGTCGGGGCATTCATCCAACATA next?
A) Not fulfilled

Q) What do you have for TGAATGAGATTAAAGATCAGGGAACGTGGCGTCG ?
A) Not fulfilled

Q) Query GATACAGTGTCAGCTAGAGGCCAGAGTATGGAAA next
A) Not fulfilled

Q) What do you have for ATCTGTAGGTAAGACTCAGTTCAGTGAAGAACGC ?
A) Not fulfilled

Q) Also need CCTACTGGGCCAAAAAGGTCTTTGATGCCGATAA , thanks.
A) Not fulfilled

Q) Next entry: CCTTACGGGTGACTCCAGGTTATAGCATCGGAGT
A) Not fulfilled

Q) Try this sequence too: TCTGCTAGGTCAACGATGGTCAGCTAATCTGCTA
A) Fulfilled

Q) What would you report for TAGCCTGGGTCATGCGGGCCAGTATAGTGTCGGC ?
A) Fulfilled

Q) Again, but for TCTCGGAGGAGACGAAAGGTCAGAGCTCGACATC
A) Fulfilled
